Give pKd for every item shown.
- systemUnderTest: T1, EsCas13d, nuclease-dead (Eubacterium siraeum, UniProt B0MS50, R295A;H300A;R849A;H854A)
- T1 sequence: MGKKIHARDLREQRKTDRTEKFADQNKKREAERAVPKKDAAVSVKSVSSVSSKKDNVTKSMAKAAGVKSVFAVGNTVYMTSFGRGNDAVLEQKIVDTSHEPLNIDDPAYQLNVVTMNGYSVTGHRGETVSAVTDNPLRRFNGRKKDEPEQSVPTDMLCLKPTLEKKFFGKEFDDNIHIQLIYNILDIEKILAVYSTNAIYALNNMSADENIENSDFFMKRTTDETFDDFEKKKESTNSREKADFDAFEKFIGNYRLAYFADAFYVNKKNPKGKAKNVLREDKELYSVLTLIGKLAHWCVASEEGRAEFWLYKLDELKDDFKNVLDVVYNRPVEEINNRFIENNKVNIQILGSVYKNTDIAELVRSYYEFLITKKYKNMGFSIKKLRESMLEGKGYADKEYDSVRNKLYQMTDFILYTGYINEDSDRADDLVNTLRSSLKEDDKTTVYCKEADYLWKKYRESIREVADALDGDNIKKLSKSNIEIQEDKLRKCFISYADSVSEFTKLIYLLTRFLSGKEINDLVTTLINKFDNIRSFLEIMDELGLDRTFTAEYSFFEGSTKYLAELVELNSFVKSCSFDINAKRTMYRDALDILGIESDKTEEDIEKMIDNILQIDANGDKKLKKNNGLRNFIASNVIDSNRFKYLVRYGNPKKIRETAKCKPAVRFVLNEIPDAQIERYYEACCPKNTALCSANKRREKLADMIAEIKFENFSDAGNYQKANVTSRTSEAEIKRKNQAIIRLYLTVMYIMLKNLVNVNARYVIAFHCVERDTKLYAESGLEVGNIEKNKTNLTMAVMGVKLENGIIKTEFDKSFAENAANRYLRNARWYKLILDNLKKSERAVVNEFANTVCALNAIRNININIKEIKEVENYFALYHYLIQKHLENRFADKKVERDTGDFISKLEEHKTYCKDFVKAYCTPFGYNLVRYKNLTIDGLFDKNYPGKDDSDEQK
- protocolText: crRNA (strand 1, pre-loaded); Mg2+; 40 mM Tris-HCl pH 7.5, 150 mM NaCl, 6 mM MgCl2, 1 mM DTT, 0.1% Tween-20, 0.2 mg/ml BSA; 25 C; 10 min per concentration, then washed
- assaySetup: tags: His6-TwinStrep-SUMO cleaved; N-terminal SNAP kept (SNAP-Surface 488); label: 3' end held by stalled T7 RNA polymerase
Give bare numbers, as −log10 of the molar value.

INSERT INTO assay_data (binder, recordedmeasurement) VALUES
  ('target 3 G4C,U21A (mixed) RNA 1: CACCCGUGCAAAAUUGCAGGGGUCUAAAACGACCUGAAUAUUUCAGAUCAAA RNA 2: GGGAAUGGAUCCACAUCUACGAAUUCGUUUAUGAUCUGAAAUAUUCACGUCUGCAGAUCGGAAGAGCACACGU', 7.06);

Each of the following entries comes with a recorded value; kindly state pKd for each.
1. target 3 insU 3' of 3 (mixed) RNA 1: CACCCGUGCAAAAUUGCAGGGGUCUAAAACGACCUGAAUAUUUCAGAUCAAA RNA 2: GGGAAUGGAUCCACAUCUACGAAUUCGUUUUUGAUCUGAAAUAUUCAGGUUCUGCAGAUCGGAAGAGCACACGU
2. target 1 C6G,C22U (mixed) RNA 1: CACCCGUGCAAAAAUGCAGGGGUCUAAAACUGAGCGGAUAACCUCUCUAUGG RNA 2: GGGAAUGGAUCCACAUCUACGAAUUCGUAUCAUAGAGAGGUUAUCGGCUCACCGAGAUCGGAAGAGCACACGU
3. target 1 del14,del16 (mixed) RNA 1: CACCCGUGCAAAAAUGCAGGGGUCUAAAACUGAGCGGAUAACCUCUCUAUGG RNA 2: GGGAAUGGAUCCACAUCUACGAAUUCGUACCAUAGGGGUUAUCCGCUCACCGAGAUCGGAAGAGCACACGU
4. target 2 MT 5'PFS AAA 3'PFS ACG (mixed) RNA 1: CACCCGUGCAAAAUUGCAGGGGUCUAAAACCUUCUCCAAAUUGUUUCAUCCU RNA 2: GGGAAUGGAUCCACAUCUACGAAUUCAAAAGGAUGAAACAAUUUGGAGAAGACGAGAUCGGAAGAGCACACGU

7.53
7.85
7.08
8.36
